Catalogue of inhibition at 1 µM values
- Target entity: panel of 255 wild-type kinases (Homo sapiens)
- Assay notes: Kinase panel profiling at 1 µmol/L (MSA or IMAP), percentage inhibition
- Type: biochemical
- Measurement conditions: BMX kinase assay; 1 µmol/L single concentration; read-out: %-inhibition BMX
Record the value in %, omitting the unit from your answer.

Molecule	Parameter measured	Value
CCn1c(=O)c(-c2cc(NC(=O)Nc3ccccc3)c(F)cc2Br)cc2cnc(NC)cc21 [ripretinib]	inhibition at 1 µM	60

Looking up COC(=O)N[C@@H](C)CNc1nccc(-c2cn(C(C)C)nc2-c2cc(Cl)cc(NS(C)(=O)=O)c2F)n1 [encorafenib] , I see its inhibition at 1 µM listed as 8

Looking up Cc1nc(NC(=O)N2CCC[C@H]2C(N)=O)sc1-c1ccnc(C(C)(C)C(F)(F)F)c1 [alpelisib] , I see its inhibition at 1 µM listed as 0.476

----------
- System: 134 cancer cell lines
- Assay notes: Cell viability assay (ATPlite, 72 hours), IC50 on cancer cell line panel
- Measurement conditions: Homo sapiens, NCCIT, read-out: IC50 in cell proliferation assay, NCC-IT cell line
Parameter measured: IC50
Show the value, then the unit it is measured in.

Observe how each entry below is paired with its result.
Compound smiles	IC50
CC(C)(C)c1nc(-c2cccc(NS(=O)(=O)c3c(F)cccc3F)c2F)c(-c2ccnc(N)n2)s1	1.16 µM
CCCS(=O)(=O)Nc1ccc(F)c(C(=O)c2c[nH]c3ncc(-c4ccc(Cl)cc4)cc23)c1F	25.5 µM
COc1cc2ncnc(Nc3ccc(F)c(Cl)c3)c2cc1NC(=O)/C=C/CN1CCCCC1	4.43 µM

Query molecule follows.
# value of IC50, 134 cancer cell lines, item CCc1nc(C(N)=O)c(Nc2ccc(N3CCC(N4CCN(C)CC4)CC3)c(OC)c2)nc1NC1CCOCC1 = 0.307 µM

----------
- Target entity: panel of 255 wild-type kinases (Homo sapiens, UniProt Q14289)
- Sequence (Q14289 whole entry): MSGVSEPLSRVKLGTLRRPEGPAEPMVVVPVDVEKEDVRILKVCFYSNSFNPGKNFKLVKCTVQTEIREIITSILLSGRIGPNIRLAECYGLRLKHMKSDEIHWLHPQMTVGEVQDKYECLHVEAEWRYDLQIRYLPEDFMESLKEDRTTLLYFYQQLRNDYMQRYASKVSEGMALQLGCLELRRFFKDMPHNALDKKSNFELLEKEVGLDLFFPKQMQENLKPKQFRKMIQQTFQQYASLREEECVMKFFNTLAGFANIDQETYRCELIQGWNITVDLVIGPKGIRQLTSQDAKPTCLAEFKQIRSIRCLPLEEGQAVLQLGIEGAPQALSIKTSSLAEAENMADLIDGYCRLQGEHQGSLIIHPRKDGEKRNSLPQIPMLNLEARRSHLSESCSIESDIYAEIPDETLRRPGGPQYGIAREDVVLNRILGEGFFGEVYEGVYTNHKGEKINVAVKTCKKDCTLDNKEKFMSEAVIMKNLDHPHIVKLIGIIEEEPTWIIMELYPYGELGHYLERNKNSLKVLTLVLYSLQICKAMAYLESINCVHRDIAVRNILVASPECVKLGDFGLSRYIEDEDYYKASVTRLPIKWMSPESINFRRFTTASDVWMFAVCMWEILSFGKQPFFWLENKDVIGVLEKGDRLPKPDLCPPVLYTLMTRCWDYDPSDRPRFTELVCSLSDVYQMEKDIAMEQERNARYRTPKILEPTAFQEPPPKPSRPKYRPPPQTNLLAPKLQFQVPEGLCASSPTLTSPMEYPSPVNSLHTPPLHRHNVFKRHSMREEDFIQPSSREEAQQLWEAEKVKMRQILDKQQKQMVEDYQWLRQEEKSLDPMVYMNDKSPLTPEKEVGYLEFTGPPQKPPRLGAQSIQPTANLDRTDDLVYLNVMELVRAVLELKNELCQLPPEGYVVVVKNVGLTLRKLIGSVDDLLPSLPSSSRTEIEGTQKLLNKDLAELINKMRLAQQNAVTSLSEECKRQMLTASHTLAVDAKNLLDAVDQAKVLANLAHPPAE
- Assay notes: Kinase panel profiling at 1 µmol/L (MSA or IMAP), percentage inhibition
- Assay type: biochemical
- Measurement conditions: kinase PYK2; 1 µmol/L single concentration; read-out: %-inhibition at 1 µmol/L, PYK2
Parameter measured: inhibition at 1 µM (%)
Record the value in %, omitting the unit from your answer.

Compound smiles	Target entity	inhibition at 1 µM [%]
CCn1c(=O)c(-c2cc(NC(=O)Nc3ccccc3)c(F)cc2Br)cc2cnc(NC)cc21	panel of 255 wild-type kinases (Homo sapiens, UniProt Q14289)	19
Cc1nc(NC(=O)N2CCC[C@H]2C(N)=O)sc1-c1ccnc(C(C)(C)C(F)(F)F)c1	panel of 255 wild-type kinases (Homo sapiens, UniProt Q14289)	-4
COc1ccc(CN2C3CC2CN(c2ccc(-c4cc(OCC(C)(C)O)cn5ncc(C#N)c45)cn2)C3)cn1	panel of 255 wild-type kinases (Homo sapiens, UniProt Q14289)	12
Cn1cnc2c(F)c(Nc3ccc(Br)cc3Cl)c(C(=O)NOCCO)cc21	panel of 255 wild-type kinases (Homo sapiens, UniProt Q14289)	-0.622
Cc1cc(Nc2ncnc3ccc(NC4=NC(C)(C)CO4)cc23)ccc1Oc1ccn2ncnc2c1	panel of 255 wild-type kinases (Homo sapiens, UniProt Q14289)	1.48

Looking up O=C(Nc1cnn2ccc(N3CCC[C@@H]3c3cc(F)ccc3F)nc12)N1CC[C@H](O)C1 , I see its inhibition at 1 µM listed as 5.34

Looking up CCN1C(=O)N(c2c(F)c(OC)cc(OC)c2F)Cc2cnc3[nH]c(CN4CCOCC4)cc3c21 , I see its inhibition at 1 µM listed as 8

Looking up CN1CCN(c2ccc(C(=O)Nc3n[nH]c4ccc(Cc5cc(F)cc(F)c5)cc34)c(NC3CCOCC3)c2)CC1 , I see its inhibition at 1 µM listed as 96

Looking up C=CC(=O)N1CCC([C@@H]2CCNc3c(C(N)=O)c(-c4ccc(Oc5ccccc5)cc4)nn32)CC1 , I see its inhibition at 1 µM listed as 5.37

Looking up C[C@H](Nc1ncnc2nc[nH]c12)c1cc2cccc(Cl)c2c(=O)n1-c1ccccc1 , I see its inhibition at 1 µM listed as -3.37

Looking up CO[C@]1(C(=O)N[C@@H](C)c2ccc(-n3cc(F)cn3)nc2)CC[C@H](c2nc(C)cc(Nc3cc(C)[nH]n3)n2)CC1 , I see its inhibition at 1 µM listed as 64

Looking up Cn1cnc2c(F)c(Nc3ccc(Br)cc3F)c(C(=O)NOCCO)cc21 , I see its inhibition at 1 µM listed as 2.41
